Ref: patent US20140171357A1

Catalogue of MIC 90% values
# System: VanA vancomycin-resistant E. faecalis (11)
# TEST_SUMMARY: MIC broth microdilution, VanA E. faecalis
# TEST_CONTEXT: E. faecalis, VanA (11)
Give just the numeric value; mg/L need not be written.

- CCCCCCCCCCNCCNC1(C)CC(OC2C(Oc3c4cc5cc3Oc3ccc(cc3Cl)C(O)C3NC(=O)C(NC(=O)C5NC(=O)C(CC(N)=O)NC(=O)C(NC(=O)C(CC(C)C)NC)C(O)c5ccc(c(Cl)c5)O4)c4ccc(O)c(c4)-c4c(O)cc(O)cc4C(C(=O)NCCOCCOCCN)NC3=O)OC(CO)C(O)C2O)OC(C)C1O (stereo not drawn): 4

Report MIC 90%, nothing else, for this compound: CNC(CC(C)C)C(=O)NC1C(=O)NC(CC(N)=O)C(=O)NC2C(=O)NC3C(=O)NC(C(=O)NC(C(=O)O)c4cc(O)c(CNCCOCCOCCN)c(O)c4-c4cc3ccc4O)C(O)c3ccc(c(Cl)c3)Oc3cc2cc(c3OC2OC(CO)C(O)C(O)C2OC2CC(C)(NCc3ccc(OCc4ccc(Cl)c(Cl)c4)cc3)C(O)C(C)O2)Oc2ccc(cc2Cl)C1O (stereo not drawn)
4

Report MIC 90%, nothing else, for this compound: CNC(CC(C)C)C(=O)NC1C(=O)NC(CC(N)=O)C(=O)NC2C(=O)NC3C(=O)NC(C(=O)NC(C(=O)O)c4cc(O)c(CNCCOCCOCCN)c(O)c4-c4cc3ccc4O)C(O)c3ccc(c(Cl)c3)Oc3cc2cc(c3OC2OC(CO)C(O)C(O)C2OC2CC(C)(NCc3ccc(-c4ccc(Cl)cc4)cc3)C(O)C(C)O2)Oc2ccc(cc2Cl)C1O (stereo not drawn)
8

----------
# Tested on: Staphylococcus aureus (65 strains)
# TEST_SUMMARY: MIC broth microdilution, S. aureus all isolates
# TEST_CONTEXT: S. aureus (65), all resistance subsets
METRIC: MIC 50% (µg/mL)
Give just the numeric value; µg/mL need not be written.

* CCCCCCCCCCNCCNC1(C)CC(OC2C(Oc3c4cc5cc3Oc3ccc(cc3Cl)C(O)C3NC(=O)C(NC(=O)C5NC(=O)C(CC(N)=O)NC(=O)C(NC(=O)C(CC(C)C)NC)C(O)c5ccc(c(Cl)c5)O4)c4ccc(O)c(c4)-c4c(cc(O)c(CNCCOCCOCCN)c4O)C(C(=O)O)NC3=O)OC(CO)C(O)C2O)OC(C)C1O (stereo not drawn) | 0.03
* CNC(CC(C)C)C(=O)NC1C(=O)NC(CC(N)=O)C(=O)NC2C(=O)NC3C(=O)NC(C(=O)NC(C(=O)O)c4cc(O)c(CNCCOCCOCCOCCN(C)C)c(O)c4-c4cc3ccc4O)C(O)c3ccc(c(Cl)c3)Oc3cc2cc(c3OC2OC(CO)C(O)C(O)C2OC2CC(C)(NCc3ccc(-c4ccc(Cl)cc4)cc3)C(O)C(C)O2)Oc2ccc(cc2Cl)C1O (stereo not drawn) | 0.12

Please turn your attention to the following entry.
Report MIC 50%, nothing else, for this molecule: CNC(CC(C)C)C(=O)NC1C(=O)NC(CC(N)=O)C(=O)NC2C(=O)NC3C(=O)NC(C(=O)NC(C(=O)NCCOCCOCCN)c4cc(O)cc(O)c4-c4cc3ccc4O)C(O)c3ccc(c(Cl)c3)Oc3cc2cc(c3OC2OC(CO)C(O)C(O)C2OC2CC(C)(NCc3ccc(OCc4ccc(Cl)c(Cl)c4)cc3)C(O)C(C)O2)Oc2ccc(cc2Cl)C1O (stereo not drawn)
0.06
